assay: Pharmacokinetics of Compounds 27, 16, 14 and 22 in SD rats; assay type: in vivo; conditions: Sprague-Dawley, rat, in vivo, PO, dose 5 (mg/kg)
assay endpoint: AUC(0-t) (ng·h/mL)
Provide the reading as a plain figure in ng·h/mL.

Give its AUC(0-t) value. Item: `COCCNc1ccc(CCNc2nc(N)n3nc(-c4ccco4)nc3n2)cc1` 484

====

assay: Pharmacokinetics of acetate of Compound 22 in SD rats with single and repeated administration; type: in vivo; details: female, Sprague-Dawley, rat, plasma, po, 63 mg/kg, Group 3 PO 63 mg/kg single, Female, read-out: T1/2 (converted)
assay endpoint: half-life (h)
Provide the reading as a plain figure in h.

Give its half-life value. Item: CC(=O)O.Nc1nc(NCCc2ccc(NC3COC3)cc2)nc2nc(-c3ccco3)nn12 [Acetate of Compound 22] 2.91

====

test: Pharmacokinetic evaluation of Compound 22 in female BALB/c mice in different vehicles; assay type: in vivo; conditions: mouse, plasma, po, 100 mg/kg, 100 mg/kg p.o. single, Group 2, vehicle 40% (2-hydroxypropyl)-β-cyclodextrin
assay endpoint: AUC(0-t) (ng·h/mL)
Provide the reading as a plain figure in ng·h/mL.

Give its AUC(0-t) value. Item: `Nc1nc(NCCc2ccc(NC3COC3)cc2)nc2nc(-c3ccco3)nn12` 28400

====

assay: Pharmacokinetics of acetate of Compound 22 in SD rats with single and repeated administration; type: in vivo; details: female, Sprague-Dawley, rat, plasma, po, 63 mg/kg, Group 5 PO 63 mg/kg repeated, Day 1, Female, read-out: Tmax (median)
assay endpoint: Tmax (h)
Provide the reading as a plain figure in h.

Give its Tmax value. Item: CC(=O)O.Nc1nc(NCCc2ccc(NC3COC3)cc2)nc2nc(-c3ccco3)nn12 [Acetate of Compound 22] 2

====

Assay: Pharmacokinetics of acetate of Compound 22 in SD rats with single and repeated administration
Format: in vivo
Details: female, Sprague-Dawley, rat, plasma, po, 63 mg/kg, Group 5 PO 63 mg/kg repeated, Day 7, Female, read-out: T1/2 (converted)
Description: The formulation for Group 5 was prepared before administration on Day 1, and then, divided into daily doses and stored at 5±3° C. […] Pharmacokinetic data was calculated using the linear logarithmic trapezoidal method, with a weight of 1/(Y*Y). Samples with the sample concentration below the lower limit of quantification were excluded from the calculation of pharmacokinetic parameters. […]
assay endpoint: half-life (h)
Provide the reading as a plain figure in h.

Give its half-life value. Item: CC(=O)O.Nc1nc(NCCc2ccc(NC3COC3)cc2)nc2nc(-c3ccco3)nn12 [Acetate of Compound 22] 2.73

====

experiment: Pharmacokinetics of acetate of Compound 22 in SD rats with single and repeated administration; assay type: in vivo; settings: Sprague-Dawley (SD), rat, plasma, oral, 63 mg/kg, 63 mg/kg daily for 7 consecutive days, Day 1, read-out: AUC0-t
assay endpoint: AUC(0-t)

Give its AUC(0-t) value. Item: CC(=O)O.Nc1nc(NCCc2ccc(NC3COC3)cc2)nc2nc(-c3ccco3)nn12 [Acetate of Compound 22] 111 µg·h/mL

====

assay: Pharmacokinetic evaluation of Compound 22 in female BALB/c mice in different vehicles; format: in vivo; settings: mouse, plasma, po, 100 mg/kg, 100 mg/kg p.o. single, Group 2, vehicle 40% (2-hydroxypropyl)-β-cyclodextrin
assay endpoint: Cmax (ng/mL)
Provide the reading as a plain figure in ng/mL.

Give its Cmax value. Item: `Nc1nc(NCCc2ccc(NC3COC3)cc2)nc2nc(-c3ccco3)nn12` 5580
